molecular target: Recombinant human HSP90a (Homo sapiens); assay: HSP90 radioligand filter binding test ([3H]17AAG competition); conditions: [3H]17AAG 0.08 μM, HSP90 1.5 μg/assay, 22° C., 30 min; read-out: IC50 (HSP90 inhibition)
attribute-measured: IC50

The cases that follow already have their IC50 on record.
CC(CN(C)C)NS(=O)(=O)c1ccccc1-c1ccc2nc(N)nc(C(=O)N3Cc4ccccc4C3)c2c1 (stereo not shown) [Compound A17] | 10 to 1000 nM
Nc1nc(C(=O)N2Cc3ccccc3C2)c2cc(-c3ccccc3C(=O)N3CCC(O)CC3)ccc2n1 [Compound A23] | 10 to 1000 nM
NCCNS(=O)(=O)c1ccccc1-c1ccc2nc(N)nc(C(=O)N3Cc4ccccc4C3)c2c1 [Compound A14] | 10 to 1000 nM

Read off the recorded IC50 for Nc1nc(C(=O)N2Cc3ccccc3C2)c2cc(-c3ccccc3C(=O)NC3CCC3)ccc2n1 [Compound A46]
10 to 1000 nM

###

molecular target: Recombinant human HSP90a (Homo sapiens, UniProt P07900); assay: HSP90 radioligand filter binding test ([3H]17AAG competition); details: [3H]17AAG 0.08 μM, HSP90 1.5 μg/assay, 22° C., 30 min; read-out: IC50 (HSP90 inhibition)
pIC50: −log10 of the molar value.
attribute-measured: pIC50

The cases that follow already have their pIC50 on record.
CCN(CCO)C(=O)c1cc(F)c(F)cc1-c1ccc2nc(N)nc(C(=O)N3Cc4ccccc4C3)c2c1 [Compound A75] | 6.00 to 8.00
Nc1nc(C(=O)N2Cc3ccccc3C2)c2cc(-c3ccccc3C(=O)N(CCO)CCO)ccc2n1 [Compound A73] | 6.00 to 8.00
CN(CCO)C(=O)c1ccccc1-c1ccc2nc(N)nc(C(=O)N3Cc4ccccc4C3)c2c1 [Compound A22] | 6.00 to 8.00
Nc1nc(C(=O)N2Cc3ccccc3C2)c2cc(-c3cc(F)c(F)cc3C(=O)N3CCCC3)ccc2n1 [Compound A78] | 6.00 to 8.00

Continue with the next compound.
Read off the recorded pIC50 for CCN(CC)C(=O)c1cc(OC)c(OC)cc1-c1ccc2nc(N)nc(C(=O)N3Cc4ccccc4C3)c2c1 [Compound A88]
5.00 to 6.00
